# target: T1, human CD63 (human, UniProt P08962 2-238)
# T1 construct: stably transfected in NIH3T3/hCD63; The cell line is named under assay; also called hCD63
# T1 sequence: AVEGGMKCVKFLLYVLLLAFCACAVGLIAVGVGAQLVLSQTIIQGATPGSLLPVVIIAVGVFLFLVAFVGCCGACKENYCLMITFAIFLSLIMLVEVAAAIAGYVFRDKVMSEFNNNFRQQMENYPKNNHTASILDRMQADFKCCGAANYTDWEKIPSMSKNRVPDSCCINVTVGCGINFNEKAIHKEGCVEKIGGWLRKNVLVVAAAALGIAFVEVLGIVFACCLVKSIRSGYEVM
# test_name: ECL, NIH3T3/hCD63 cells
Please go through the items and note down their binding ratio at 3.7 nM vs NIH3T3.
Report as: number unit

binder: H2M12385N (antibody, V domains shown, also called H2bM12385N; H2bM12385) VH: QVQLVESGGGLVKPGGSLRLSCAASGFTFTDYFMNWIRQAPGKGLEWVSYISNSGAIKYQADSVKGRFTISRDNAKNSLYLQMNSLRADDTAVYYCVRDPRSYYGFDYWGQGTLVTVSS VL: DIQMTQSPSSLSASVGDRVTITCRASQSIRNFLNWYQQKPGKAPRLLIYAASSLQSGVPSRFSGGGSGTDFTLTISSLQPEDFATYYCQQSYSNPPITFGQGTRLEIK
binding ratio at 3.7 nM vs NIH3T3: 71 fold

Next item in the queue.
Prompt: Give the measured binding ratio at 3.7 nM vs NIH3T3 of H2M12452N (antibody, V domains shown, also called H2aM12452N) VH: QVQLQEAGPGLVKPSETLSLTCIVSGGSISGFYWNWIRQPPGKGLEWIGYFLYSGTIDYNPSLKSRVTISVDTSKNQFFLKLSFVTAADTAVYYCVRMGLGANAFDIWGRGTMVTVSS VL: EIVLTQSPGTLSLSPGERATLSCRASQTVSRSFLAWYQQKPGQAPRLLIYGPSSRATGIPDRFSGSGSGTDFTLTISRLEPEDFAVYYCQQYGNSPWTFGQGTKVEIK .
Response: 593 fold
